System: RAW-Dual
Assay: NF-kB SEAP reporter activity, fold change vs agonist alone; cytotoxicity flag (confluency mask): not cytotoxic; higher = enhanced NF-kB activity
Details: agonist: ODN 1826 (TLR9) 0.5 ug/mL
Over roughly 2,900 compounds, “NF-kB SEAP reporter activity, fold change vs agonist alone” has its median near 0.99; the highest 2% begin near 2.6. The list comes from a sample in which the highest values are over-represented; it also holds close analogues and randomly drawn compounds.
Catalogue of NF-kB SEAP reporter activity readings, one per entry.
Readout type: NF-kB SEAP reporter activity

- Compound: "Nc1nc(F)nc2c1ncn2C1OC(CO)C(O)C1O (stereo not drawn) (library stock concentration (final ~1000-fold dilution): 10 mM)"
  Quantitative readout: 1.03
- Compound: "CC(Nc1nc(NC(C)C(F)(F)F)nc(-c2cccc(Cl)n2)n1)C(F)(F)F (stereo not drawn) (library stock concentration (final ~1000-fold dilution): 10 mM)"
  Quantitative readout: 1.18
- Compound: "CCCCCCOC(=O)c1cc(=O)c(O)c2c(O)c(O)c(OC)cc2c1 (library stock concentration (final ~1000-fold dilution): 1 mM)"
  Quantitative readout: 0.931

====

Test system: RAW-Dual
Assay: NF-kB SEAP reporter activity, fold change vs agonist alone; cytotoxicity flag (confluency mask): not cytotoxic; higher = enhanced NF-kB activity
Conditions: agonist: Pam3CSK4 (TLR2/1) 0.1 ug/mL
The full ranking holds about 2,900 compounds; the median of “NF-kB SEAP reporter activity, fold change vs agonist alone” is about 0.99, and the highest 2% start at about 2.6. The sample as a whole holds a higher share of the highest values than the screen did.
Readout type: NF-kB SEAP reporter activity

- Compound: "O=C(Nc1ccccc1)c1cc([N+](=O)[O-])ccc1Cl (library stock concentration (final ~1000-fold dilution): 10 mM)"
  Result: 0.836
- Compound: "CS(=O)(=O)Nc1ccc([N+](=O)[O-])cc1Oc1ccccc1 (library stock concentration (final ~1000-fold dilution): 10 mM)"
  Result: 0.873
- Compound: "CN1CCc2c(c3ccccc3n2Cc2ccc(C(=O)NO)cc2)C1 (library stock concentration (final ~1000-fold dilution): 10 mM)"
  Result: 1.15
- Compound: "CN1CCc2c(c3ccccc3n2Cc2ccc(C(=O)NO)cc2)C1.Cl (library stock concentration (final ~1000-fold dilution): 10 mM)"
  Result: 1.59
- Compound: "Cn1ncc(Cl)c1-c1cc(C(=O)NC(CN)Cc2cccc(F)c2)sc1Cl (stereo unspecified) (library stock concentration (final ~1000-fold dilution): 10 mM)"
  Result: 1.15
- Compound: "CCCCCCCCCCCC(CC1OC(=O)C1CCCCCC)OC(=O)C(CC(C)C)NC=O (stereo unspecified) (library stock concentration (final ~1000-fold dilution): 10 mM)"
  Result: 0.978

====

System: RAW-Dual
Test: NF-kB SEAP reporter activity, fold change vs agonist alone; cytotoxicity flag (confluency mask): not cytotoxic; higher = enhanced NF-kB activity
Settings: agonist: Pam3CSK4 (TLR2/1) 0.1 ug/mL
Whole data set: some 2,900 compounds, median “NF-kB SEAP reporter activity, fold change vs agonist alone” near 0.99, cut for the highest 2% near 2.6. Only a selection was taken, and the highest values are over-represented in it overall.
Would you please tag the item label 1 when its NF-kB SEAP reporter activity is 1 or above, and label 0 when it is below?

- Compound: "CN1CCN(CCCNc2ncc(Cl)c(-c3cc4c(C(=O)NC5CC5)cccc4s3)n2)CC1.Cl.Cl.Cl (library stock concentration (final ~1000-fold dilution): 10 mM)"
  Class label: "label 0"
- Compound: "CCOc1ccc(Cc2cc(C3OC(CO)C(O)C(O)C3O)ccc2Cl)cc1 (stereo not given) (library stock concentration (final ~1000-fold dilution): 10 mM)"
  Class label: "label 1"
- Compound: "CC(C)(OC1OC(CO)C(O)C(O)C1O)C1Cc2cc3ccc(=O)oc3cc2O1 (stereo not given) (library stock concentration (final ~1000-fold dilution): 10 mM)"
  Class label: "label 1"
- Compound: "Cc1cc2ncc(C(=O)NCC(C)(C)NCC(=O)N3CCCC3C#N)cn2n1 (stereo not given) (library stock concentration (final ~1000-fold dilution): 10 mM)"
  Class label: "label 0"
